- Tested on: PPARg:RXRa 90nM:30nM, anti-RXR (NR concentration 90 nM, RXRa partner concentration 30 nM)
- MEASUREMENT DESCRIPTION: PBM binding z-score (relative to random genomic background probes); higher = stronger binding; sequences stand for … in GC…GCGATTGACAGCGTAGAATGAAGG
Rule: label 1 for PBM binding z-score not less than 3, label 0 for anything less.

Problem: Reported PBM binding z-score reaches at least 3 for "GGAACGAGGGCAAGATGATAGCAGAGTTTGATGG" ?
Solution: label 0

Problem: "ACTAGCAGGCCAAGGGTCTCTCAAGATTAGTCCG" , same question.
Solution: label 1

Problem: Could you do the same for "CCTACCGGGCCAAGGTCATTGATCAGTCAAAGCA" , please?
Solution: label 0

---

- Test system: RARg homodimer (NR concentration 270 nM)
- MEASUREMENT DESCRIPTION: PBM binding z-score (relative to random genomic background probes); higher = stronger binding; sequences stand for … in GC…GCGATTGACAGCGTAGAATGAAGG
PARAMETER: PBM binding z-score

Below are worked cases with known answers.
entry_sequence=TCTAGAAGGCCAGAGGGTCACTCAAGAGGTACGG parameter="PBM binding z-score" measured_value=2.72
entry_sequence=CGAACTAGGTCATCCAGGGCAGTGAATACATTGA parameter="PBM binding z-score" measured_value=5.14
entry_sequence=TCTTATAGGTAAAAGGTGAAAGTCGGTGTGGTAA parameter="PBM binding z-score" measured_value=0.977
entry_sequence=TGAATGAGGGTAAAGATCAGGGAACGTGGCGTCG parameter="PBM binding z-score" measured_value=0.391
entry_sequence=ATAGCAAGGTGATCGTGAGGTCGTTGATACTAAC parameter="PBM binding z-score" measured_value=0.811

I'm hoping you can list PBM binding z-score for every sequence here, please.
1. CCATACAGGTGAAAGGTAACTCAGTCTGGTACGC
2. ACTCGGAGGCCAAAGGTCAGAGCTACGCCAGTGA
3. AGAACGAGGGCAATGAGTTAATAGCACGGGTGGC
4. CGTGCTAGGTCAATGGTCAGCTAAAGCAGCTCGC

Solution:
1. 0.917
2. 4.8
3. 1.51
4. 4.95

Field: PBM binding z-score. Fill in for each record below.
1. GCAGACAGGTGAAACGCAGGAAACTCAGGGTGGC
2. CCTTACGGGCCACTCCAGGTTATAGCATCGGAGT
3. CTCGAAAGGTCGGTTAAGGTGAGTATACGGATAA
4. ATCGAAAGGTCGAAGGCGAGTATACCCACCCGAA

Solution:
0.0798
0.515
3.26
3.68

Provide PBM binding z-score for all items below, preserving their order.
1. CCTGCTAGGTCATTGGTCAGCTAAAGCAGCTCGC
2. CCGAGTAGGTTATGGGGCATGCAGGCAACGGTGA
3. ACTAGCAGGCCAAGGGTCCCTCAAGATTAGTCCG
4. ATATGTAGGTTAGCTGGGTTCATTCAGACTAGGC
5. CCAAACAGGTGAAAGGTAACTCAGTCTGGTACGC
6. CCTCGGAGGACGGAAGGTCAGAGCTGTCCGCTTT
7. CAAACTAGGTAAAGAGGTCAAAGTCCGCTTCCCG
8. CAAACTAGGTCACCGGAAGGACAAAGTCCGCATG

Solution:
1: 4.43; 2: 0.548; 3: -0.0696; 4: 0.836; 5: 0.696; 6: 2.14; 7: 4; 8: 6.15

Parameter requested: PBM binding z-score. Apply to each item below.
1. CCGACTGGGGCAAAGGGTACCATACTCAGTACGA
2. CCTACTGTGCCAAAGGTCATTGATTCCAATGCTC
3. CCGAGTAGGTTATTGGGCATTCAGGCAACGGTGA
4. TAGCCTAGGTCAGTTCGGGCCAGTATACGCTATA
5. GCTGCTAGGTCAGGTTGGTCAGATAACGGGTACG
6. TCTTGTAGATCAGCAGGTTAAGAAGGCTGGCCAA

Solution:
[0.506, 5.21, 0.187, 3.3, 3.5, -0.229]

I'm hoping you can list PBM binding z-score for every sequence here, please.
1. GGAGACAGGTGAAACGCAGGTAACTCAGGGTGGC
2. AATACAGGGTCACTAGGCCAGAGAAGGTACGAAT
3. CCTATTAGTTGACCATTAGGGCAACCGAAGCTCG
4. TCTATTAGTTCATTAGGGCAACCGAAACAGCGGA
5. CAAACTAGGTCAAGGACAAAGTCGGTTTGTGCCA
6. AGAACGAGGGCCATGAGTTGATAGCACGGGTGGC
7. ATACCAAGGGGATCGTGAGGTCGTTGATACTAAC
8. CCGACTGGGGCATAAGCTTACCATAAGCCAGCCC

Solution:
1. 0.252
2. 4.96
3. 0.891
4. 2.37
5. 4.91
6. 0.308
7. 0.278
8. -0.313

Batch: PBM binding z-score for all items listed.
1. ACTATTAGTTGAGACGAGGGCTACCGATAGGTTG
2. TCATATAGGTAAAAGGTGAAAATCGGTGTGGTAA
3. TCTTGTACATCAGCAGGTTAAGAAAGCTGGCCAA

Solution:
[0.518, 0.775, -0.00852]

Would you mind listing PBM binding z-score for each of the following sequences?
1. CTGACTGGGGCATAAGGTTACCATAAGCCAGCCC
2. TAGCCTAGGTCATGCGGGCCACTATAGTGTCGGC

Solution:
1. 1.46
2. 4.41

Quick batch: PBM binding z-score for everything below.
1. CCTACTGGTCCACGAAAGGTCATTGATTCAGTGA
2. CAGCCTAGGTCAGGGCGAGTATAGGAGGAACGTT
3. GCTGCTAGGTCAACTGATTGTCAGCTAAAGCTCG
4. TCATATAGGTAATACAGGTGTAAGTCGGCATCTA
5. CAAACTAGGTCACAGAGGTCACAGTCCGTGCGTA

Solution:
1. 4.43
2. 3.72
3. 4.95
4. 0.355
5. 7.58
